Data credit: patent US20030162943A1

Molecular target: T1, human D6 (human, UniProt O00590 1-384)
T1 construct: Full-length human D6 expressed in CHO, Hos.CD4, HEK 293, K293 or L1.2 cells; Endogenous on THP-1 cells; also called human D6 receptor; wild type human D6
T1 sequence: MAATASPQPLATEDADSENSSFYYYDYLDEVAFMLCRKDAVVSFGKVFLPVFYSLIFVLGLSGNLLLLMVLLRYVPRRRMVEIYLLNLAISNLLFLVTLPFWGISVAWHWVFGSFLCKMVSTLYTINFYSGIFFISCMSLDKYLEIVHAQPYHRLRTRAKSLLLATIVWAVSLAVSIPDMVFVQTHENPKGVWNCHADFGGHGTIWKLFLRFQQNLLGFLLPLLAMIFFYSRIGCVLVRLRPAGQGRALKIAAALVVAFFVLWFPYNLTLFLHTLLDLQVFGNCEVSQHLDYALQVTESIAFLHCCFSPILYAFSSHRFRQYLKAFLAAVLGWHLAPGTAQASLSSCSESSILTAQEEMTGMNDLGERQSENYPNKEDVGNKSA
Experiment: displacement of 125I-murine MIP-1α by unlabeled chemokine on cells expressing human D6; LIGAND analysis
Method: Stably transfected CHO cells were plated at 10^5 cells/well in 24-well plates and incubated overnight at 37° C. […] Lysed cells were transferred to a counting vial and bound radioactivity counted for 1 minute in Beckman Gamma 5500B counter. […] Data was analyzed using Scahot and Scafit programs in LIGAND software (Munson et al. (1980) Anal. Biochem. 107:220-239). […]
pKd: −log10 of the molar value.
Reported pKd is given for each of the following binders.
measure: pKd

{"binder": "human MIP-1α (ligand, UniProt P10147 24-92, looked up, also called hMIP-1α) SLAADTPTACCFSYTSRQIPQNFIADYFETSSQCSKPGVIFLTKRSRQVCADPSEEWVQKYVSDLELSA", "measure": "pKd", "numeric.readout": 7.19}
{"binder": "human HCC1 (ligand, UniProt Q16627 20-93, looked up) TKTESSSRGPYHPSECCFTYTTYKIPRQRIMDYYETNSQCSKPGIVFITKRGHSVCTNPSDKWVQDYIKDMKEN", "measure": "pKd", "numeric.readout": 7.57}
{"binder": "human MIP-1β (ligand, UniProt P13236 24-92, looked up) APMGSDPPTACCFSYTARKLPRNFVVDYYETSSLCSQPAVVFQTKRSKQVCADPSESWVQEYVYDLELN", "measure": "pKd", "numeric.readout": 8.77}
{"binder": "murine MCP-5 (ligand, UniProt Q62401 23-104, looked up, also called mMCP-5) GPDAVSTPVTCCYNVVKQKIHVRKLKSYRRITSSQCPREAVIFRTILDKEICADPKEKWVKNSINHLDKTSQTFILEPSCLG", "measure": "pKd", "numeric.readout": 8.20}
{"binder": "murine MIP-1α (ligand, UniProt P10855 24-92, looked up, also: radioiodinated (125I) when used as tracer, also called mMIP-1α) APYGADTPTACCFSYSRKIPRQFIVDYFETSSLCSQPGVIFLTKRNRQICADSKETWVQEYITDLELNA", "measure": "pKd", "numeric.readout": 9.04}
{"binder": "murine Eotaxin (ligand, UniProt P48298 24-97, looked up) HPGSIPTSCCFIMTSKKIPNTLLKSYKRITNNRCTLKAIVFKTRLGKEICADPKKKWVQDATKHLDQKLQTPKP", "measure": "pKd", "numeric.readout": 7.52}
{"binder": "murine MIP-1β (ligand, UniProt P14097 24-92, looked up, also called mMIP-1β; murine M1β) APMGSDPPTSCCFSYTSRQLHRSFVMDYYETSSLCSKPAVVFLTKRGRQICANPSEPWVTEYMSDLELN", "measure": "pKd", "numeric.readout": 9.12}
